molecular target: MAPK14;MAPK11;MAPK12 (human); assay: Inhibition of p38 Kinase Activity
pIC50: −log10 of the molar value.
Endpoint: pIC50

Would you please look over these solved cases?
Cc1ccc(C(N)=O)cc1Nc1nc(NCC2(c3ccccc3)CC2)nc(N[C@H]2CCNC2)n1 : > 6.00
Cc1ccc(CN2CC[C@H](Nc3nc(Nc4cc(C(N)=O)ccc4C)nc(N(C)CC(C)C)n3)C2)c(C)c1 : > 6.00
CNCCN(C)c1nc(NC[C@H](C)c2ccccc2)nc(Nc2ccc3ncsc3c2)n1 : > 5.00

Recall and state the measured pIC50 for Cc1cccc(CN2CC[C@H](Nc3nc(Nc4cc(C(N)=O)ccc4C)nc(N(C)CC(C)C)n3)C2)n1 .
> 6.00

Recall and state the measured pIC50 for Cc1ccc(C(N)=O)cc1Nc1nc(NCCc2ccc(F)cc2)nc(N[C@H]2CCNC2)n1 .
> 6.00
